Test: Lipophilicity, log D of the compound by HPLC
Format: physicochemical
ENDPOINT LABEL: logD

# STRUCTURE NOTATION, ENDPOINT LABEL, MEASURED NUMBER
data = [
    ("Cc1cccc(Nc2ccc(-c3ccc(N4CCNCC4)nc3)cc2)n1", "logD", 1.99),
    ("CN1CCN(c2ccc(-c3ccc4c(c3)CCNC4)cc2C(F)(F)F)CC1", "logD", 2.13),
]

====

Molecular target: Acid-sensing ion channel 3 (Homo sapiens)
Experiment: Inhibition of human ASIC3 expressed in HEK293 cells assessed as inhibition of acid-evoked current by manual patch-clamp electrophysiology assay
ENDPOINT LABEL: IC50 (µM)

# COMPOUND, MEASUREMENT TARGET, IC50 [µM]
records = [
    ("Nc1ccnc(-c2ccccc2)c1", "Acid-sensing ion channel 3 (Homo sapiens)", 6.9),
    ("Cc1cccc(Nc2nccc3ccoc23)n1", "Acid-sensing ion channel 3 (Homo sapiens)", 9),
    ("NCc1ccc(-c2c[nH]cn2)cc1", "Acid-sensing ion channel 3 (Homo sapiens)", 160),
]

(1) COc1ccc2[nH]cc(CN3CCc4cc(-c5cccc(C(F)(F)F)c5)ccc4C3)c2c1
(2) CC1CCCCN1c1cccc(-c2ccc3c(c2)CCNC3)n1 (stereo not drawn)
(3) Cc1cc(N2CCc3cc(Br)ccc3C2)c2ccccc2n1
(4) Nc1ccnc(-c2cccc(C#CCCO)c2)c1
[Q] Exam item: list the entries in increasing order of IC50. In plain terms: list the labels in the order you were asked to.
[A] 2, 4, 3, 1
(2: 1.7 µM, 4: 2.6 µM, 3: 27.6 µM, 1: 103 µM)

(P) COc1cccnc1Nc1cccc(C)n1
(Q) Nc1ccc(-c2c[nH]cn2)cc1
[Q] Pick one: P or Q . Which has the bigger IC50 number? # answer = label of selected item
[A] Q

====

Biological target: CYP2D6 (Homo sapiens)
Sequence (P10635 whole entry): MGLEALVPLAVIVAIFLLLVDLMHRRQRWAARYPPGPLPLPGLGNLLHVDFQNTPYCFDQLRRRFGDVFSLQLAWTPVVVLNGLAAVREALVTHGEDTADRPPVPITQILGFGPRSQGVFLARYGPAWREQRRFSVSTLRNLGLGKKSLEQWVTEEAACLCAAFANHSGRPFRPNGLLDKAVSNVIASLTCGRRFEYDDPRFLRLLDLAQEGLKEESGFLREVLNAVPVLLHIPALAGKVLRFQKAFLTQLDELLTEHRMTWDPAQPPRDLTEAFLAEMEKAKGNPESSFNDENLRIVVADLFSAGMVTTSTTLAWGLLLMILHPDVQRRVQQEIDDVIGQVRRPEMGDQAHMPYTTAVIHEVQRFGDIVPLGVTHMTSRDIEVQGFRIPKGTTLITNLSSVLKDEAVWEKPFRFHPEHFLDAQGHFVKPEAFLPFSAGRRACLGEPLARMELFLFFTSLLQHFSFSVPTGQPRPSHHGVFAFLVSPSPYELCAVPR
Experiment: Inhibition of CYP2D6 at 10 uM
Assay type: ADME
Recorded inhibition at 10 µM, one value per entry.

# STRUCTURE NOTATION, MEASUREMENT TARGET, inhibition at 10 µM
records = [
    ("Cc1cccc(Nc2ccc(-c3ccc(N4CCNCC4)nc3)cc2)n1", "CYP2D6 (Homo sapiens)", "< 45%"),
]

[Q] State the recorded inhibition at 10 µM for this entry: `CN1CCN(c2ccc(-c3ccc4c(c3)CCNC4)cc2C(F)(F)F)CC1`
[A] < 35%

====

Biological target: Acid-sensing ion channel 3 (Homo sapiens, UniProt Q9UHC3)
Sequence (Q9UHC3 whole entry): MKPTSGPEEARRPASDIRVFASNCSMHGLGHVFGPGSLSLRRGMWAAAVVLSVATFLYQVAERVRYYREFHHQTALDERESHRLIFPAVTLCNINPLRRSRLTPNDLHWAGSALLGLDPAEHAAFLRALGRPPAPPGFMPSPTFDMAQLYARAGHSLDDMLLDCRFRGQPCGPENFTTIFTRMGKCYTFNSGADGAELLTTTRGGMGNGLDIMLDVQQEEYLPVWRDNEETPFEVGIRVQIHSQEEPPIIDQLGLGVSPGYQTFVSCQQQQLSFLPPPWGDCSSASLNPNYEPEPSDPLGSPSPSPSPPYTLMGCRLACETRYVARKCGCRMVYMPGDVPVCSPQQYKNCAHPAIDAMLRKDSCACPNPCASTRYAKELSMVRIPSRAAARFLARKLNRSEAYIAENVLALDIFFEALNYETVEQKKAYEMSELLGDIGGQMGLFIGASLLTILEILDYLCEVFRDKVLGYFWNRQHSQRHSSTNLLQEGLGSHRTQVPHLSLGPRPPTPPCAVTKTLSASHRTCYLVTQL
Experiment: Inhibition of human ASIC3 expressed in HEK293 cells assessed as inhibition of acid-evoked current by manual patch-clamp electrophysiology assay
pIC50: −log10 of the molar value.
ENDPOINT LABEL: pIC50

Here is how some compounds turned out for pIC50.
# STRUCTURE NOTATION, ENDPOINT LABEL, MEASURED NUMBER
data = [
    ("Nc1ccnc(-c2cccc(C#Cc3ccccc3)c2)c1", "pIC50", 5.92),
    ("CN1CCN(c2ccc(-c3ccc4c(c3)CCNC4)cc2C(F)(F)F)CC1", "pIC50", 5.51),
    ("c1cc2c(cc1-c1cnc3c(c1)CCN3)CCNC2", "pIC50", 4.71),
    ("Brc1ccc2c(c1)CCNC2", "pIC50", 3.15),
    ("COc1ccc2[nH]cc(CN3CCc4cc(Br)ccc4C3)c2c1", "pIC50", 4.96),
    ("Cc1cccc(Nc2ccc(C#CC(C)(C)O)cc2)n1", "pIC50", 4.77),
]

(I) Cc1cccc(Nc2ccc(-c3ccc(N4CCNCC4)nc3)cc2)n1
(II) NCc1cc2ccccc2s1
(III) NCc1nc2ccccc2s1
(IV) CN1CCN(c2ccc(-c3ccc4c(c3)CCNC4)cc2)CC1
[Q] # sort list by recorded pIC50, greatest to least # the answer lists labels in the order requested
[A] I, IV, II, III
(I: 5.42, IV: 4.84, II: 4.01, III: 3.44)

(A) Nc1cc(Cc2ccccn2)nc(-c2ccccc2)c1
(B) Nc1cc(-c2ccccc2)ncn1
[Q] Which entry has a larger number for pIC50, A or B ? Let me know the label of the one you choose.
[A] A

====

Assay: Plasma protein binding in rat
Type: ADME, cell-free
Details: read-out: PPB (converted)
ENDPOINT LABEL: fraction unbound

(A) Cc1cccc(Nc2ccc(-c3ccc(N4CCNCC4)nc3)cc2)n1
(B) CN1CCN(c2ccc(-c3ccc4c(c3)CCNC4)cc2C(F)(F)F)CC1
[Q] Which numeric fraction unbound is bigger, that of A or that of B ? Which one? Tell me its label.
[A] B
(B: 0.011, A: 0.007)

====

Test: Clearance in rat
Type: ADME, organism-based
Details: in vivo
ENDPOINT LABEL: clearance (mL/min/kg)
Give the number; mL/min/kg is assumed, so skip it.

[Q] Can you share its clearance? I mean this compound: `Cc1cccc(Nc2ccc(-c3ccc(N4CCNCC4)nc3)cc2)n1`
[A] 11

====

Entries and their inhibition at 10 µM values follow.
Biological target: UniProt P11712
Sequence (P11712 whole entry): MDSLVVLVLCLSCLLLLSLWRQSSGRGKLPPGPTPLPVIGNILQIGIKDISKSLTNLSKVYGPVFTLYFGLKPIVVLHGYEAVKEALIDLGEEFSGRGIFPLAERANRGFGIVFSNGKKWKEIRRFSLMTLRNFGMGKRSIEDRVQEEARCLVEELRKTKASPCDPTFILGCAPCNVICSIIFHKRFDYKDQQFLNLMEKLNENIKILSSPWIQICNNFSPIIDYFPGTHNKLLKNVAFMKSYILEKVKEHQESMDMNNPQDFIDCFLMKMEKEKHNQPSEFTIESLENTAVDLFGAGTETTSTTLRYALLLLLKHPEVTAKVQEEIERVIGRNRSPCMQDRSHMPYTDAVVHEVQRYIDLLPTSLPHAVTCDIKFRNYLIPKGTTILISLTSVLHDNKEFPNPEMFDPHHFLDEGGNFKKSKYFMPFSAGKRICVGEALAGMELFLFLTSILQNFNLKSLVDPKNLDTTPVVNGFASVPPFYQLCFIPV
Assay: Inhibition of CYP2C9 at 10 uM
Assay type: ADME

# STRUCTURE NOTATION, RESULT
measured = [
    ("CN1CCN(c2ccc(-c3ccc4c(c3)CCNC4)cc2C(F)(F)F)CC1", "< 35%"),
]

Now look at this entry.
[Q] Give its inhibition at 10 µM value. Item: `Cc1cccc(Nc2ccc(-c3ccc(N4CCNCC4)nc3)cc2)n1`
[A] < 45%

====

Assay: Half life in rat
Assay type: ADME, organism-based
Settings: in vivo
ENDPOINT LABEL: half-life (h)
Dear colleague, please return just the value in h, with no unit written.

[Q] Data request, read-out half-life, for `Cc1cccc(Nc2ccc(-c3ccc(N4CCNCC4)nc3)cc2)n1`
[A] 4.8

====

Molecular target: Acid-sensing ion channel 3 (Homo sapiens, UniProt Q9UHC3)
Assay: Inhibition of human ASIC3 expressed in HEK293 cells assessed as inhibition of acid-evoked current by manual patch-clamp electrophysiology assay
ENDPOINT LABEL: IC50 (µM)

// solved cases for IC50 follow
# STRUCTURE NOTATION, ENDPOINT LABEL, UNIT ABBREVIATION, MEASURED NUMBER
measured = [
    ("Clc1cc(Cl)cc(-c2ccc3c(c2)CCNC3)c1", "IC50", "µM", 3.3),
    ("FC(F)(F)c1cccc(-c2ccc3c(c2)CCNC3)c1", "IC50", "µM", 7.1),
]

(I) CCCc1cc(N)c2cc(C(=O)NCCc3ccc(Cl)cc3)ccc2n1
(II) Nc1cccc(-c2ccccc2)n1
[Q] Decide: I or II , by lowest recorded IC50. Lab log: write the label of the selected item as the result.
[A] I
(I: 9.6 µM, II: 763 µM)
